Target: T1, recombinant human IL-17F (produced in HEK cells, Proteintech HZ-1116) (human, UniProt Q96PD4 31-163)
T1 sequence (looked up): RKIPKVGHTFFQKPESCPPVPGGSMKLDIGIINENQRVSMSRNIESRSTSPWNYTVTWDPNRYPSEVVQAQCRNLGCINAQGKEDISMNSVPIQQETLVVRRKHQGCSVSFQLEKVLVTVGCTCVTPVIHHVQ
Assay: cell-based or functional assay
Outcome Measure: Neutralization potency, ranking from 1 = the best to 4 (HEK-Blue IL-17 reporter cells) (rank)

>  <Binder>
Bm42A09 (VHH, Class B, second generation) VHH: QVQLVESGGGLVRTGGSLRLSCSVSGDISSQSAMGWYRQVPGRQRELVAMIHTTKGDTYYADSVKGRFTISRINANNTIYLQMNNLKPEDTAIYYCTHNEPGDLYMGQGTLVTVSS

>  <Reported>
1

$$$$
>  <Binder>
VHH662 (VHH, Control VHH of Ablynx, disclosed in WO2012156219) VHH: EVQLVESGGGSVQAGDSLRLSCAASGRANSINWFGWFRQTPGKEREFVAGIRWSDAYTEYANSVKGRFTISRDNAKNTVDLQMDSLKPEDTAVYYCVLDLSTVRYWGQGTQVTVSS

>  <Reported>
4

$$$$
>  <Binder>
Bm44G10 (VHH, Class C, second generation) VHH: QVQLVESGGGLVQPGGSLRLSCVASGFTFSSFAMSWYRQDPGRERKLVAAITNDGGTTFYSDLVKGRFTISRDNTKNTVYLQMNNVKPDDAAVYYCMAVRGLYGSNWYDYPFELWGQGTQVTVSS

>  <Reported>
3

$$$$
>  <Binder>
Bm44C09 (VHH, Class A, second generation) VHH: QVQLVESGGGLVQAGGSLRLSCAASGLAVSSYAMGWFRQAPGKEREFVAAISWISGGTKYADSVKDRFTMSRDNAKKQVYLEMNSLKPEDTAVYYCNDMPYGLDTRMDDYKYWGQGIQVTVSS

>  <Reported>
1

$$$$
>  <Binder>
Bm42B11 (VHH, Class A, second generation) VHH: QVQLVESGGDLVQAGGSLRLSCSVSGLRVSSYAMGWFRQAPGKEREFVAAISWVGGDTRYADSVKGRFTMSRDNAKKQVYLEMNSLKPEDTAVYYCNDMPYGMETRMDDYASWGQGTQVTVSS

>  <Reported>
2

$$$$
>  <Binder>
Bm45G07 (VHH, Class D, second generation) VHH: QVQLVESGGGFVQAGGSLKLSCSVSGNTFITNHMGWFRQPPGKGREFVAGIRWSDGSTFYGDSVRGRFTISGDNAKHTLYLQMNSLKPDDTAVYYCYIDSGSDRYYGQGTLVTVSS

>  <Reported>
2

$$$$
>  <Binder>
Re42F08 (VHH, Class B, first generation) VHH: QVQLVESGGGLVKAGGSLRLSCVVSGHTSEISAMGWYRQAPGKQRELVALITSRSGDTHYSDSVKGRFSISRDNAKNTMYLQMNSLNPDDTAVYYCVHNEPGHLYMAQGTQVTVSS

>  <Reported>
4

$$$$
>  <Binder>
Bm44B11 (VHH, Class A, second generation) VHH: QVQLVESGGGLVQAGGSLNLSCVISRRTPSGYAMGWFRQASGKEREFVAAISWIGGGAVYADSVKGRFTMSRDNAKNTVYLQMNSLKPEDTAVYYCNDMPYGLDTTMDDYDYWGQGTQVTVSS

>  <Reported>
1

$$$$
>  <Binder>
Bm44G07 (VHH, Class B, second generation) VHH: QVQLVQSGGGLVQTGGSLRLSCSVSGDISSQSAMGWYRQVPGRQRELVAMIHTTKGDTYYADSVKDRFTISRINANNTIHLQMNNLKPEDTAIYYCTHNEPGDLYMGQGTQVTVSS

>  <Reported>
1

$$$$
>  <Binder>
Bm43B02 (VHH, Class A, second generation) VHH: QVQLVESGGGLVQAGGSLNLSCVISRRTPSGYAMGWFRQASGKEREFVAAISWIGGGAVYADSVKGRFTMSRDNAKNTVYLQMNSLKPEDTAVYYCNDMPYGLDTTMDDYDYWGQGTLVTVSS

>  <Reported>
2

$$$$
>  <Binder>
VHH664 (VHH, Control VHH of Ablynx, disclosed in WO2012156219) VHH: EVQLVESGGGLVQAGGSLRLSCAASGRTYDAMGWLRQAPGKEREFVAAISGSGDDTYYADSVKGRFTISKDNAGITMYLQMNSLKPEDTAVYYCATRRGLYYVWDSNDYENWGQGTQVTVSS

>  <Reported>
4

$$$$
>  <Binder>
Re42B04a (VHH, Class A; Monovalent VHH) VHH: QVQLVESGGGLVQVGGSLRLSCEVSGLPVSSYAMGWFRQAPEKEREFVAAISWIGGDSRYAHFVKGRFTISRDNAKNTVHLQMDSLKPEDTAVYYCNDMPYGLDTRMDEYEYWGQGTQVTVSS

>  <Reported>
2

$$$$
>  <Binder>
Bm44B04 (VHH, Class B, second generation) VHH: QVQLVESGGGLVRTGGSLRLSCSVSGDISSQSAMGWYRQVPGRQRELVAMIHTTKGDTYYADSVKGRFTISRINANNTIYLQMNNLKPEDTAIYYCTHNEPGDLYMGQGTQVTVSS

>  <Reported>
2

$$$$
>  <Binder>
Bm42A03 (VHH, Class C, second generation) VHH: QVQLVESGGGLVQPGGSLRLSCVASGFTFSSFAMSWYRQDPGKERKLVAAITNDGGTTFYSDLVKGRFTISRDNTKNTVYLQMNNVKPDDAAVYYCMAVRGLYGSNWYDYPFELWGQGTQVTVSS

>  <Reported>
1

$$$$
